- System: PXR homodimer (NR concentration 270 nM)
- procedureDetails: PBM binding z-score (relative to random genomic background probes); higher = stronger binding; sequences stand for … in GC…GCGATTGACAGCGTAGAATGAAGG
Note to self: values exactly at 0.3 are TRUE. So PBM binding z-score at or above 0.3 is TRUE, below is FALSE.

Query string: hey, is PBM binding z-score for this one >= 0.3? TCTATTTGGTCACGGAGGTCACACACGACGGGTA
Result string: TRUE

Query string: hey, is PBM binding z-score for this one >= 0.3? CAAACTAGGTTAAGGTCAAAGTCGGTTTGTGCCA
Result string: TRUE

Query string: hey, is PBM binding z-score for this one >= 0.3? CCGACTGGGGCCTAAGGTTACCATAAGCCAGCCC
Result string: FALSE

Query string: hey, is PBM binding z-score for this one >= 0.3? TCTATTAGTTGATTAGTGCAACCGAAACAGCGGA
Result string: TRUE

Query string: hey, is PBM binding z-score for this one >= 0.3? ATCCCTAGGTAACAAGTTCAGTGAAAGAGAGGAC
Result string: TRUE

Query string: hey, is PBM binding z-score for this one >= 0.3? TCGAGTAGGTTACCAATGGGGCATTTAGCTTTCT
Result string: FALSE

Query string: hey, is PBM binding z-score for this one >= 0.3? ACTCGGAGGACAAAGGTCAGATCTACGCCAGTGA
Result string: TRUE

Query string: hey, is PBM binding z-score for this one >= 0.3? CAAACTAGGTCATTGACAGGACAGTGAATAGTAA
Result string: FALSE

Query string: hey, is PBM binding z-score for this one >= 0.3? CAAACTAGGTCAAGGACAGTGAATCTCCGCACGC
Result string: FALSE

Query string: hey, is PBM binding z-score for this one >= 0.3? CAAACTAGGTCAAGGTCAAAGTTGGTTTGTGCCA
Result string: TRUE

Query string: hey, is PBM binding z-score for this one >= 0.3? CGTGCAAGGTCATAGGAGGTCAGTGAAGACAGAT
Result string: TRUE

Query string: hey, is PBM binding z-score for this one >= 0.3? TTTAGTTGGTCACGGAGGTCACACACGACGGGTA
Result string: TRUE

====

- System: FXR:RXRa (NR concentration 270 nM, RXRa partner concentration 90 nM)
- procedureDetails: PBM binding z-score (relative to random genomic background probes); higher = stronger binding; sequences stand for … in GC…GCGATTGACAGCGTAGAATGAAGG
Task for the reader: assign each of the following sequences its reported PBM binding z-score.

Query string: Consider the sequence shown here: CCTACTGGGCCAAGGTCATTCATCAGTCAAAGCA What is its recorded PBM binding z-score?
Result string: 3.63

Query string: Consider the sequence shown here: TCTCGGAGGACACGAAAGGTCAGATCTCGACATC What is its recorded PBM binding z-score?
Result string: 3.11

Query string: Consider the sequence shown here: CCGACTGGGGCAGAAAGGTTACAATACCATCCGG What is its recorded PBM binding z-score?
Result string: 0.452

Query string: Consider the sequence shown here: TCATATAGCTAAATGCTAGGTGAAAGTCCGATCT What is its recorded PBM binding z-score?
Result string: 0.567

Query string: Consider the sequence shown here: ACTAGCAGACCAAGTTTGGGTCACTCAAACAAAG What is its recorded PBM binding z-score?
Result string: -0.0358

Query string: Consider the sequence shown here: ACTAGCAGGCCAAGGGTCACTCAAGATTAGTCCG What is its recorded PBM binding z-score?
Result string: 2.48
